Documented odt across a set of molecules
assay: Odor detection threshold (ODT); details: Table 15
PROPERTY LABEL: odt (ppb)

> print(dat)
                                    molecule  assay.value
 1  C=C(C)[C@H]1CC=C(C)CC1 [d-LIMONINE, d-1-Methyl-4-isopropenyl-1-cyclohexene]          430
 2  CC1CC(C)(c2ccccc2)CO1 (stereo not drawn) [RHUBAFURAN]          440
 3  CC(=O)OC(C)c1ccccc1 (stereo not drawn) [STRALLYL ACETATE, STYRALLYL ACETATE]          110
 4  CCC(C)C(=O)N(C)c1ccccc1 (stereo not drawn) [GARDAMIDE]           24
 5  CCCCCCC#CC(=O)OC [METHYL OCTINE CARBONATE]          9.7
 6  CCCCCCCC=O [ALDEHYDE C 8 (OCTANAL), OCTANAL]          4.8
 7  CC/C=C\CCOC(C)=O [CIS-3-HEXENYL ACETATE]          170
 8  C=CC(C)(O)CCC=C(C)CC (mixture of isomers) [ETHYL LINALOOL]          120
 9  CC/C=C\CC/C=C/CO [TRANS 2 CIS 6 NONADENOL, TRANS 2 CIS 6 NONADIENOL]          1.5
10     CCCCCCCCCCC=CC#N [TRIDECEN 2 NITRILE]          8.7
11  CC(CC=O)CCc1ccccc1 (stereo not drawn) [MEFRANAL]           17
12  CCCCCCCCCCCC=O [ALDEHYDE C12 (DODECANAL), DODECANAL]           17
13  CC(C)=CCCC(C)CC#N (stereo not drawn) [CITRONELLYL NITRILE]           71
14  C=CC(C)CCCC(C)(C)O (stereo not drawn) [DIHYDROMYRCENOL]          810
15  CCC=C(C)C(O)CCCCC (stereo not drawn) [UNDECAVERTOL, 4-Methyl-3-decen-5-ol]           28
